Test: Metabolic stability in Sprague-Dawley rat liver microsomes assessed as remaining compound at […] incubated for 60 mins
Format: ADME, Microsome
Details: read-out: Stability
Measured Attribute: remaining at 1 h (%)

CCC/C(=C\c1cc(OCc2ccc3nc(C(F)(F)F)cc(OC)c3c2)ccc1OCC1CCN(C)CC1)C(=O)O = 95
CCC/C(=C\c1cc(OCc2ccc3nc(C(F)(F)F)cc(OC)c3c2)ccc1OCCN1CCN(C)CC1)C(=O)O = 81

###

Test: Tmax in Swiss CD1 mouse at 1 mg/kg, ip measured upto 7 hrs by LC-MS analysis
Assay type: ADME, organism-based
Conditions: in vivo
Measured Attribute: Tmax (h)

CCC/C(=C\c1cc(OCc2ccc3nc(C(F)(F)F)cc(OC)c3c2)ccc1OCCN1CCN(C)CC1)C(=O)O = 1
CCC/C(=C\c1cc(OCc2ccc3nc(C(F)(F)F)cc(OC)c3c2)ccc1OCC1CCN(C)CC1)C(=O)O = 1

###

Assay: Cmax in Swiss CD1 mouse at 1 mg/kg, ip measured upto 7 hrs by LC-MS analysis
Type: ADME, organism-based
Set-up: dose 1 mg/kg, route intraperitoneal
Settings: in vivo
Measured Attribute: Cmax (µM)

CCC/C(=C\c1cc(OCc2ccc3nc(C(F)(F)F)cc(OC)c3c2)ccc1OCC1CCN(C)CC1)C(=O)O = 0.06
CCC/C(=C\c1cc(OCc2ccc3nc(C(F)(F)F)cc(OC)c3c2)ccc1OCCN1CCN(C)CC1)C(=O)O = 0.074

###

Target: Peroxisome proliferator-activated receptor gamma (Homo sapiens, UniProt P37231)
Sequence (P37231 whole entry): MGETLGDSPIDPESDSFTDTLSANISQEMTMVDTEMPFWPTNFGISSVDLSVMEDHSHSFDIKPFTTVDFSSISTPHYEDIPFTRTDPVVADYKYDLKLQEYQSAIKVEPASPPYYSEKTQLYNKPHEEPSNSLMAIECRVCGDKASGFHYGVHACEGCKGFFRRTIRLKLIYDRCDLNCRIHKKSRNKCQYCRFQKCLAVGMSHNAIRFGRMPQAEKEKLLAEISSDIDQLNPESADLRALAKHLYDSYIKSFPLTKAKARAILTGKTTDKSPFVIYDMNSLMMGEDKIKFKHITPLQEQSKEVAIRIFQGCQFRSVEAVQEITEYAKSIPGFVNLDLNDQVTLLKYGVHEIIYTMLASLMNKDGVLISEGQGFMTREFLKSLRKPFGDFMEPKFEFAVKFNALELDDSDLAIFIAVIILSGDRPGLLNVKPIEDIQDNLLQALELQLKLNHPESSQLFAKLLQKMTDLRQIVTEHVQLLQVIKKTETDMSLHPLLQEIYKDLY
Test: Antagonist actvity in pFA-GAL4-DBD fused PPARgamma LBD (unknown origin) transfected in HEK293T cells assessed as inhibition of rosiglitazone-induced PPARgamma transactivation incubated for 24 hrs by luciferase reporter gene assay
Format: cell-based
Settings: read-out: IC50
Measured Attribute: IC50 (µM)

Completed entries (count: 5):
CCC/C(=C\c1cc(OCc2ccc3ccccc3n2)ccc1OCc1ccc(F)cc1)C(=O)O = 13.1
CCC/C(=C\c1cc(OCc2ccc3[nH]c(=O)ccc3c2)ccc1OCc1ccc(F)cc1)C(=O)O = 6.1
CCC/C(=C\c1cc(OCc2ccc3nc(C)ccc3c2)ccc1OCc1ccc(F)cc1)C(=O)O = 4.2
COc1cc(C(F)(F)F)nc2ccc(COc3ccc(OCc4ccc(F)cc4)c(/C=C/C(=O)O)c3)cc12 = 11
CCC/C(=C\c1cc(OCc2ccc3ccccc3c2)ccc1OCc1ccc(F)cc1)C(=O)O = 15.8

(P) CCC/C(=C\c1cc(OCc2ccc3ncccc3c2)ccc1OCC1CCN(C)CC1)C(=O)O
(Q) CCC/C(=C\c1cc(OCc2ccc3nc(C(F)(F)F)cc(OC)c3c2)ccc1OCc1ccncc1)C(=O)O
(R) CCC/C(=C\c1cc(OCc2ccc3nc(C(F)(F)F)cc(OC)c3c2)ccc1OCc1ccccc1)C(=O)O
(S) CCC/C(=C\c1cc(OCc2ccc3nc(C(F)(F)F)cc(OC)c3c2)ccc1OCC1CCN(C)CC1)C(=O)O
// sort entries: IC50, high to low Record the ranking as a list of labels in the requested order.
P, R, Q, S
